- Tested on: Plasmodium vinckei petteri
- RUN_DESCRIPTION: Antimalarial activity against Plasmodium vinckei petteri infected orally dosed Swiss Albino mice (Mus musculus)
- Type: functional
PARAMETER_MEASURED: CD50 (mg/kg/day)
Answers are plain numbers, in mg/kg/day.

Field: example entries. Status: answers known.
| MOLECULE | VALUE_UNIT | OBSERVED_MEASUREMENT |
| --- | --- | --- |
| CC(C)C1=C[C@H]2OC3(CCC(NCCNc4ccnc5cc(Cl)ccc45)CC3)OO[C@@]2(C)CC1.O=[N+]([O-])O (stereo not given in full) | mg/kg/day | 24 |
| CC(C)C1=C[C@H]2OC3(CCC(NCCNc4ccnc5cc(Cl)ccc45)CC3)OO[C@@]2(C)CC1 (stereo not given in full) | mg/kg/day | 12 |

Turning now to a further molecule:
Req: For the molecule shown here, C[C@H]1[C@H](OC(=O)CCC(=O)O)O[C@@H]2O[C@@]3(C)CC[C@H]4[C@H](C)CC[C@@H]1[C@@]24OO3 [ARTESUNATE] , give the reported CD50.
Resp: 19

---

For each record, write down the corresponding IC50.
- Tested on: Plasmodium falciparum
- RUN_DESCRIPTION: Antimalarial activity against chloroquine-sensitive Plasmodium falciparum F32
- Type: functional, organism-based
Give bare numbers, in nM.

| MOLECULE | VALUE_UNIT | IC50 |
| --- | --- | --- |
| CC(C)C1=C[C@H]2OC3(CCC(NCCNc4ccnc5cc(Cl)ccc45)CC3)OO[C@@]2(C)CC1.O=[N+]([O-])O (some centres undefined) | nM | 25 |
| CC(C)C1=C[C@H]2OC3(CCC(NCCNc4ccnc5cc(Cl)ccc45)CC3)OO[C@@]2(C)CC1 (stereo in doubt; form 6) [TRIOXAQUINE 3] | nM | 18 |
| CC(C)C1=C[C@H]2OC3(CCC(NCCNc4ccnc5cc(Cl)ccc45)CC3)OO[C@@]2(C)CC1 (stereo in doubt; form 7) [TRIOXAQUINE 3] | nM | 7 |

Turning now to a further molecule:
Req: For the molecule shown here, CC(C)C1=C[C@H]2OC3(CCC(NCCNc4ccnc5cc(Cl)ccc45)CC3)OO[C@@]2(C)CC1 (stereo in doubt; form 8) [TRIOXAQUINE 3] , give the reported IC50.
Resp: 11

---

- Tested on: Plasmodium falciparum
- RUN_DESCRIPTION: Antimalarial activity against chloroquine-resistant Plasmodium falciparum FcM29
- Assay type: functional, organism-based
Lab note: compare IC50 with 20 nM, writing Y if less and N if equal or more.

Worked examples follow.
| COMPOUND | TARGET_SYSTEM | CAT |
| --- | --- | --- |
| CC(C)C1=C[C@H]2OC3(CCC(NCCNc4ccnc5cc(Cl)ccc45)CC3)OO[C@@]2(C)CC1.O=[N+]([O-])O (stereo partly drawn) | Plasmodium falciparum | Y |
| CC(C)C1=C[C@H]2OC3(CCC(NCCNc4ccnc5cc(Cl)ccc45)CC3)OO[C@@]2(C)CC1 (stereo in doubt; form 2) | Plasmodium falciparum | N |
| CC(C)C1=C[C@H]2OC3(CCC(NCCNc4ccnc5cc(Cl)ccc45)CC3)OO[C@@]2(C)CC1 (stereo in doubt; form 4) | Plasmodium falciparum | Y |
| CC(C)C1=C[C@H]2OC3(CCC(NCCNc4ccnc5cc(Cl)ccc45)CC3)OO[C@@]2(C)CC1 (stereo in doubt; form 1) | Plasmodium falciparum | N |
| CC(C)C1=C[C@H]2OC3(CCC(NCCNc4ccnc5cc(Cl)ccc45)CC3)OO[C@@]2(C)CC1 (stereo in doubt; form 8) [TRIOXAQUINE 3] | Plasmodium falciparum | Y |
| CC(C)C1=C[C@H]2OC3(CCC(NCCNc4ccnc5cc(Cl)ccc45)CC3)OO[C@@]2(C)CC1 (stereo in doubt; form 6) [TRIOXAQUINE 3] | Plasmodium falciparum | Y |
| CC(C)C1=C[C@H]2OC3(CCC(NCCNc4ccnc5cc(Cl)ccc45)CC3)OO[C@@]2(C)CC1 (stereo in doubt; form 7) [TRIOXAQUINE 3] | Plasmodium falciparum | Y |

Note: attention shifts to another entry.
Req: Here's an entry: CC(C)C1=C[C@H]2OC3(CCC(NCCNc4ccnc5cc(Cl)ccc45)CC3)OO[C@@]2(C)CC1 (stereo in doubt; form 3) . Is its IC50 below 20 nM?
Resp: N
